- Tested on: Staphylococcus aureus
- TEST_NAME: Antibacterial activity against Staphylococcus aureus assessed as reduction in bacterial growth incubated for 24 hrs by broth microdilution method
- Type: functional
Items are presented alongside their recorded log10 of MIC.
VALUE_KIND: log10 of MIC (log10 of the value in µg/mL)

[[record]]
mol = "Nc1cc(-c2ccc(N3C[C@H](CO)OC3=O)cc2F)ccc1O"
reported_value = 0.60

[[record]]
mol = "O=C1O[C@@H](CO)CN1c1ccc(-c2ccc([N+](=O)[O-])c(O)c2)c(F)c1"
reported_value = -0.30

[[record]]
mol = "NCc1ncc(-c2ccc(N3C[C@H](CO)OC3=O)cc2F)cc1O"
reported_value = 1.30

[[record]]
mol = "O=C1O[C@@H](CO)CN1c1ccc(-c2ccccc2)c(F)c1"
reported_value = 0.00

[[record]]
mol = "CC(=O)NC[C@H]1CN(c2ccc(N3CCOCC3)c(F)c2)C(=O)O1"
reported_value = 0.49

[[record]]
mol = "NCc1ccc(-c2ccc(N3C[C@H](CO)OC3=O)cc2F)cc1O"
reported_value = 0.45

[[record]]
mol = "O=C1O[C@@H](CO)CN1c1ccc(-c2cc(O)ccc2F)c(F)c1"
reported_value = 0.30

[[record]]
mol = "NCc1cc(F)c(-c2ccc(N3C[C@H](CO)OC3=O)cc2F)cc1O"
reported_value = 1.51

[[record]]
mol = "N#Cc1ccc(O)cc1-c1ccc(N2C[C@H](CO)OC2=O)cc1F"
reported_value = 1.51

[[record]]
mol = "O=C1O[C@@H](CO)CN1c1ccc(-c2cccc(O)c2F)c(F)c1"
reported_value = 0.30

[[record]]
mol = "Nc1ccc(-c2ccc(N3C[C@H](CO)OC3=O)cc2F)cc1O"
reported_value = 0.60

[[record]]
mol = "O=C1O[C@@H](CO)CN1c1ccc(-c2ccc(F)c(O)c2)c(F)c1"
reported_value = 0.30


* * *

- Test system: Staphylococcus aureus
- TEST_NAME: Antibacterial activity against methicillin-resistant Staphylococcus aureus assessed as reduction in microbial growth by CLSI based broth microdilution method
- Assay type: functional
Items are presented alongside their recorded MIC.
VALUE_KIND: MIC

[[record]]
compound = "O=C1NC(=O)C2(Cc3cc(-c4ccc(N5C[C@H](CO)OC5=O)cc4F)ccc3C3CCCCC32)C(=O)N1 (some centres not stated)"
value_kind = "MIC"
reported_value = "2 µg/mL"

[[record]]
compound = "COC(=O)NC[C@H]1CN(c2ccc(-c3ccc4c(c3)CC3(C(=O)NC(=O)NC3=O)C3COCCN43)c(F)c2)C(=O)O1 (some centres not stated)"
value_kind = "MIC"
reported_value = "4 µg/mL"

[[record]]
compound = "CC(=O)NC[C@H]1CN(c2ccc(-c3ccc4c(c3)CC3(C(=O)NC(=O)NC3=O)C3CCCN43)c(F)c2)C(=O)O1 (some centres not stated)"
value_kind = "MIC"
reported_value = "2 µg/mL"

[[record]]
compound = "COC(=O)NC[C@H]1CN(c2ccc(-c3ccc4c(c3)CC3(C(=O)NC(=O)NC3=O)C3CCCN43)c(F)c2)C(=O)O1 (some centres not stated)"
value_kind = "MIC"
reported_value = "2 µg/mL"

[[record]]
compound = "O=C1NC(=O)C2(Cc3cc(-c4ccc(N5C[C@H](CO)OC5=O)cc4F)ccc3N3CCCCC32)C(=O)N1 (some centres not stated)"
value_kind = "MIC"
reported_value = "2 µg/mL"

[[record]]
compound = "CC(=O)NC[C@H]1CN(c2ccc(-c3ccc4c(c3)CC3(C(=O)NC(=O)NC3=O)C3COCCN43)c(F)c2)C(=O)O1 (some centres not stated)"
value_kind = "MIC"
reported_value = "4 µg/mL"

[[record]]
compound = "COC(=O)C1(C(=O)OC)Cc2cc(-c3ccc(N4C[C@H](CNC(C)=O)OC4=O)cc3F)ccc2N2CCOCC21 (some centres not stated)"
value_kind = "MIC"
reported_value = "4 µg/mL"

[[record]]
compound = "O=C1O[C@@H](CO)CN1c1ccc(-c2ccc3c(c2)CC2(C(=O)NCNC2=O)C2CCCCC32)c(F)c1 (some centres not stated)"
value_kind = "MIC"
reported_value = "2 µg/mL"

[[record]]
compound = "O=C1NC(=O)C2(Cc3cc(-c4ccc(N5C[C@H](CO)OC5=O)cc4F)ccc3N3CCOCC32)C(=O)N1 (some centres not stated)"
value_kind = "MIC"
reported_value = "4 µg/mL"

[[record]]
compound = "CC(=O)NC[C@H]1CN(c2ccc(-c3ccc4c(c3)CC3(C(=O)NC(=O)NC3=O)C3CCCCN43)c(F)c2)C(=O)O1 (some centres not stated)"
value_kind = "MIC"
reported_value = "< 1 µg/mL"

[[record]]
compound = "CC(=O)NC[C@H]1CN(c2ccc(-c3ccc4c(c3)CC3(C(=O)NCNC3=O)C3CCCCC43)c(F)c2)C(=O)O1 (some centres not stated)"
value_kind = "MIC"
reported_value = "8 µg/mL"

[[record]]
compound = "COC(=O)C1(C(=O)OC)Cc2cc(-c3ccc(N4C[C@H](CO)OC4=O)cc3F)ccc2N2CCOCC21 (some centres not stated)"
value_kind = "MIC"
reported_value = "8 µg/mL"

